- Tested on: SF-295
- Test protocol: NCI tumour cell line growth inhibition, 48 h
The source made the active and inactive calls. No stated cut-off is given here; in the data, active = GI50 up to about 1.1 µM and inactive = higher.
Consider the following molecules and their measured GI50 readings.

Before answering, review these 4 worked examples.
Cc1nc2c(n1C(C)(C)C)C(=O)c1ccccc1C2=O = 87.3 µM (inactive)
Cc1cc2c(=O)cc(-c3cccs3)oc2c(C(=O)O)c1C = > 100 µM (inactive)
COC(=O)C1=C(O)c2cc(OC)c(OC)cc2C(c2ccc(OC)c(OC)c2)C1 (stereo unspecified) = 46.9 µM (inactive)
Cc1ccc(/C=N/NC2=NCCN2)s1 = > 100 µM (inactive)

IN: So what does the record say about GI50 for CCOC(=O)C(C)(C)Oc1ccc(Cl)cc1 [CLOFIBRATE] ?
OUT: 319 µM (inactive)

IN: Could you tell me which GI50 is on file for CCCNC(/C=C/[Si](C)(C)C)CO.CCCNCC(O)/C=C/[Si](C)(C)C (stereo unspecified) ?
OUT: > 100 µM (inactive)

All values here come from ChEMBL document CHEMBL1201862.
